Here's a roundup of IC50 values tested on human MEK1 (Homo sapiens, UniProt Q02750), taken from various published works.

Some entries whose results are on file:
### Prompt Suppose we examine the molecule O=C(N[C@@H]1CCC[C@@H](O)[C@H]1O)c1ccncc1Nc1ccc(Br)cc1F (racemic) ; what IC50 value has been reported?
### Response 98 nM

### Prompt Try Cc1nccc(C(=O)O)c1Nc1ccc(I)cc1F next.
### Response < 1000 nM

### Prompt Would you mind doing O=C(NCC(O)COc1ccccc1)c1ccncc1Nc1ccc(I)cc1F (centres unmarked) as well?
### Response < 1000 nM

### Prompt Follow-up item: O=C(c1cccc(O)c1)c1c[nH]c2nccc(Cl)c12
### Response ≤ 10000 nM

### Prompt Moving on to the next molecule: O=C(NOCCO)c1cc(/C=N/O)c(F)c(F)c1Nc1ccc(I)cc1F
### Response 78 nM

### Prompt Now try O=C(CCc1c[nH]c2ncccc12)NCc1ccccc1 .
### Response ≤ 10000 nM

### Prompt Same question, CC(C)(O)CCO/N=C/c1cc(C(=O)NOCCO)c(Nc2ccc(I)cc2F)c(F)c1F this time
### Response 37.5 nM

### Prompt COC(=O)Cn1ccc2cncc(Nc3ccc(I)cc3F)c2c1=O ?
### Response > 1500 nM

More entries:
### Prompt Fill blank: measured IC50 of the molecule O=C(NCc1ccc(F)cc1)c1ccncc1Nc1ccc(I)cc1F is ____.
### Response < 1000 nM

### Prompt // repeat for Cc1cc(NS(=O)(=O)C2(CCO)CC2)c(Nc2ccc(I)cc2F)n(C)c1=O and report
### Response 8.97 nM

### Prompt Also Cc1ccccc1C(=O)c1c[nH]c2nccc(-c3ccc(C(N)=O)cc3)c12 ?
### Response ≤ 10000 nM

### Prompt NC1=N/C(=C2/CCNC(=O)c3[nH]c4ccccc4c32)C(=O)N1 ?
### Response 89 nM

### Prompt Next up: COc1ccc(C(=O)c2c[nH]c3ncc(-c4cccc(/C=C/C(=O)O)c4)cc23)c(Cl)c1
### Response ≤ 10000 nM

### Prompt Query NC(=O)c1c(Nc2ccc(I)cc2F)cc(F)cc1Oc1ccc2oc(=O)[nH]c2c1 next
### Response < 100 nM

### Prompt // repeat for O=C(c1cccc(O)c1)c1c[nH]c2ncccc12 and report
### Response ≤ 10000 nM

### Prompt Try this molecule too: CCCNS(=O)(=O)Nc1cccc(Oc2cc(F)cc(Nc3ccc(I)cc3F)c2C(N)=O)c1
### Response < 250 nM

### Prompt Now this one: C#CCCONC(=O)c1cc(Br)c(F)c(F)c1Nc1ccc(I)cc1C
### Response 45 nM

### Prompt Check NC(=O)c1ccncc1Nc1ccc(I)cc1F too.
### Response < 1000 nM

### Prompt Consider next the molecule O=C(O)/C=C/c1cccc(-c2cnc3[nH]cc(C(=O)c4cc(O)ccc4F)c3c2)c1 in the same way.
### Response ≤ 10000 nM

### Prompt What do we get for C#Cc1ccc(Nc2cc(F)cc(Oc3cccc(NS(=O)(=O)NCCC)c3)c2C(N)=O)c(F)c1 ?
### Response < 250 nM

### Prompt Moving on to O=C(NOCCNCCCCS(=O)(=O)N1CCN(c2nc(N3CCOCC3)nc(-n3c(C(F)F)nc4ccccc43)n2)CC1)c1ccc(F)c(F)c1Nc1ccc(I)cc1F
### Response 56.7 nM

* * *

Please find below pIC50 measurements for human MEK1 (Homo sapiens, UniProt Q02750), combined from several publications.
pIC50: −log10 of the molar value.

### Prompt So what's the measured pIC50 for this one? NC(=O)c1c(Nc2ccc(I)cc2F)cc(F)cc1Oc1ccc2c(c1)S(=O)(=O)CO2
### Response > 6.00

### Prompt Same lookup for O=C(NCCc1cccc(Cl)c1)c1ccncc1Nc1ccc(I)cc1F , please.
### Response > 6.00

### Prompt Please give the result for S=C(NCc1c[nH]c2ncccc12)Nc1cccc(Cl)c1 too.
### Response ≥ 5.00

// next entry
### Prompt Would you kindly share the measured pIC50 for O=C(NOCCO)c1cc(/C=N/OCCN2CCC(O)CC2)c(F)c(F)c1Nc1ccc(I)cc1F ?
### Response 6.16

* * *

Reported IC50 on UniProt Q02750 for assorted molecules, compiled from publications.

### Prompt Enter reported IC50 observed with UniProt Q02750 for CC(=O)Nc1ccc(C(=O)Nc2sc(Nc3ccccc3)nc2C(N)=O)cc1
### Response > 0.3 µM

### Prompt Next molecule up: O=C(NCCCN1CCOCC1)c1ccncc1Nc1ccc(I)cc1F
### Response < 1 µM

### Prompt Another: O=C(NCCCCCO)c1ccncc1Nc1ccc(I)cc1Cl
### Response < 1 µM

### Prompt Same again, this time with Cc1ccc(CCNC(=O)c2ccncc2Nc2ccc(I)cc2F)cc1
### Response < 1 µM

Read the next record carefully.
### Prompt Requested read-out IC50, target or system UniProt Q02750, entry O=C(CO/N=C\c1cc(C(=O)NOCCO)c(Nc2ccc(I)cc2F)c(F)c1F)NCCO
### Response 0.019 µM

* * *

Reported IC50 on human MEK1 (Homo sapiens, UniProt Q02750) for assorted molecules, compiled from publications.

Below, each entry is followed by its recorded IC50 result.
### Prompt Please report the recorded IC50 for CC(C)(CO)CO/N=C/c1cc(C(=O)NOCCO)c(Nc2ccc(I)cc2F)c(F)c1F .
### Response 69 nM

### Prompt Can you check Cc1cc(I)ccc1Nc1cc(F)ccc1C(=O)NOCc1cccs1 next?
### Response 86 nM

### Prompt What do we get for NCCONC(=O)c1c(Nc2ccc(I)cc2F)sc2c1CCCC2=O ?
### Response ≤ 150 nM

### Prompt Repeat with O=C(NCc1cc(F)cc(C(F)(F)F)c1)c1ccncc1Nc1ccc(I)cc1F
### Response < 1000 nM

***
### Prompt I'd like to know its IC50. The molecule in question is CC(C)S(=O)(=O)Nc1cncc(Oc2cc(F)cc(Nc3ccc(I)cc3F)c2C(N)=O)c1
### Response < 300 nM

### Prompt And for O=C(NOCCO)c1cc(/C=N/OCCN2CCCCC2)c(F)c(F)c1Nc1ccc(I)cc1F ?
### Response 287 nM

### Prompt Next entry: NNC(=O)c1ccncc1Nc1ccc(I)cc1F
### Response < 1000 nM

### Prompt Repeat with N#Cc1ccc(C(=O)NOCCO)c(Nc2ccc(I)cc2F)c1F
### Response ≤ 150 nM

### Prompt Next entry: Cc1cc(I)ccc1Nc1ccc(Cl)cc1C(=O)NO
### Response 23 nM

### Prompt Can you handle CONC(=O)c1ccc(C#N)cc1Nc1ccc(I)cc1F next?
### Response 150 to 1500 nM

### Prompt Now try C=CCNc1nnc(-c2cn(C)c(=O)cc2Nc2ccc(Br)cc2C)o1 .
### Response ≤ 1000 nM

### Prompt What about this molecule? O=C(NN1CCCCCC1)c1ccncc1Nc1ccc(I)cc1F
### Response < 1000 nM

### Prompt Next molecule: O=C(NO)c1cc(Br)c(F)c(F)c1Nc1ccc(I)cc1Cl
### Response 10 nM

### Prompt Likewise for CC1(C)OC[C@@H](CONC(=O)c2ccncc2Nc2ccc(I)cc2F)O1 ?
### Response < 1000 nM

### Prompt Query C#Cc1ccc(Nc2cc(F)cc(OCC[C@@H](O)CO)c2C(N)=O)c(F)c1 next
### Response < 1000 nM

### Prompt Next entry: COC(=O)c1ccncc1Nc1ccc(I)cc1Cl
### Response < 1000 nM

### Prompt CCS(=O)(=O)Nc1cccc(COc2cc(F)cc(Nc3ccc(I)cc3F)c2C(N)=O)c1 ?
### Response < 300 nM

### Prompt Then this molecule: Cc1cc(NS(=O)(=O)C2(CC(O)CO)CC2)c(Nc2ccc(I)cc2F)n(C)c1=O (racemic)
### Response 11.5 nM

* * *

Here, compounds appear alongside IC50 reported for UniProt Q02750 in the literature.

// solved cases for IC50 follow
### Prompt # get_value(readout='IC50', item= Cc1cc(I)ccc1Nc1cnccc1C(=O)O )
### Response < 1000 nM

### Prompt And what about the compound O=C(NOCCO)c1cc(/C=N/OCCN2CCOCC2)c(F)c(F)c1Nc1ccc(I)cc1F ?
### Response 262 nM

Further cases:
### Prompt I would be grateful if you could share the reported IC50 for CCCONC(=O)c1ccc(F)cc1Nc1ccc(I)cc1C .
### Response 87 nM

### Prompt # iterate: O=C(O)Cn1ccc2cncc(Nc3ccc(I)cc3F)c2c1=O
### Response > 1500 nM

### Prompt Field entry: C#Cc1ccc(Nc2cc(F)cc(Oc3cccc(NS(=O)(=O)N(C)C)c3)c2C(N)=O)c(F)c1
### Response < 250 nM

### Prompt Thanks! And NC(=O)c1ccc(-c2ccnc3[nH]cc(C(=O)c4ccccc4F)c23)cc1 ?
### Response ≤ 10000 nM

### Prompt Check CCONC(=O)c1cc(Br)c(F)c(F)c1Nc1ccc(I)cc1C too.
### Response 14 nM

### Prompt Consider next the compound O=c1c2c(Nc3ccc(I)cc3F)cncc2ccn1C[C@H](O)CO in the same way.
### Response ≤ 150 nM

### Prompt Similarly, O=C(NC1CCCCC1)c1ccncc1Nc1ccc(I)cc1F ?
### Response < 1000 nM
